Ref: ChEMBL document CHEMBL1201862

Test system: M14
experimental.details: NCI tumour cell line growth inhibition, 48 h
Activity calls are given as the source filed them. Rule as the data show it: active = GI50 up to about 1.1 µM and inactive = higher.
Form entry, call: pick from active, inactive

{"molecule": "Nc1ccc(C(=O)NN2C(=O)C(Cl)C2c2ccccc2Cl)cc1 (stereo not drawn)", "assay.system": "M14", "group": "inactive"}
{"molecule": "COc1cc(Nc2nc3cc(C)ccc3nc2-c2ccccc2)cc(OC)c1OC", "assay.system": "M14", "group": "inactive"}
{"molecule": "CC(=O)N1C(Nc2cnc3ccccc3c2)CCN1c1ccccc1 (stereo not drawn)", "assay.system": "M14", "group": "inactive"}
{"molecule": "COc1cccc(C2CC(=O)c3cc(N4CCCC4)ccc3N2)c1 (stereo not drawn)", "assay.system": "M14", "group": "active"}
{"molecule": "CCOP(=O)(OCC)/C(C#N)=C/c1c[nH]c2ccccc12", "assay.system": "M14", "group": "inactive"}
{"molecule": "CCO/C=C\\C12CCCC1NC(c1ccccc1)(c1ccccc1)O2 (stereo not drawn)", "assay.system": "M14", "group": "inactive"}
{"molecule": "N#Cc1cn(-c2c3ccccc3nc3ccccc23)c(=O)[nH]c1=O", "assay.system": "M14", "group": "inactive"}
{"molecule": "CC1C[C@]2(C[C@@H](C)C(=O)O2)OC2CC3(C)C4CCC5C(C)(C)OC(=O)CC[C@@]56C[C@@]46CC[C@]3(C)C12 (stereo partly drawn)", "assay.system": "M14", "group": "inactive"}

// param item: COc1ccc(C2=NN(C(=O)COc3ccc(Cl)cc3)C(O)(c3ccc(Cl)cc3)C2)cc1 (stereo not drawn) ; yields the recorded call inactive

// param item: Cc1ccnc2nc(-c3cccc4ccccc34)cc(O)c12 ; yields the recorded call active
